So I've got a bunch of binders here, and I need their IC50, RGA 2 values.
Target Entity: T1, murine IL-11 (mouse, UniProt P47873 22-199)
T1 sequence: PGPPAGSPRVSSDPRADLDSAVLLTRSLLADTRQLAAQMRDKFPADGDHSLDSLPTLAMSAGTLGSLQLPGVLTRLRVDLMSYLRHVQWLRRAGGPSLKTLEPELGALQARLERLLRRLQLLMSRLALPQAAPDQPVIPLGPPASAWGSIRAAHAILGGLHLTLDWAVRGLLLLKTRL
Procedure Text: cell-based or functional assay
Just so you know, I need the unit written after the number.

Look over these answered cases.
Binder: TPP-31277 (antibody, IgG4, V domains shown, hIgG4 SPLE, lambda) VH: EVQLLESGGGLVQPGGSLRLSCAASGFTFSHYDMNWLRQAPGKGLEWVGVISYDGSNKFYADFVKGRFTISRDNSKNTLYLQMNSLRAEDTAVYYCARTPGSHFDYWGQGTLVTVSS VL: QSVLTQPPSASGTPGQRVTISCSGSSSNIGSNAVNWYQQLPGTAPKLLIYYDDLLPSGVPDRFSGSKSGTSASLAISGLRSEDEADYYCSAWDDSLNGVVFGGGTKLTVL
Measured Value: 27 nM
//
Binder: TPP-31302 (antibody, IgG4, V domains shown) VH: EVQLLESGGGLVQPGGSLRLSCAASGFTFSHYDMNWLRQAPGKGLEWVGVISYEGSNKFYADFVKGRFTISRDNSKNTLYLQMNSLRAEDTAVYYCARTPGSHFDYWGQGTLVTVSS VL: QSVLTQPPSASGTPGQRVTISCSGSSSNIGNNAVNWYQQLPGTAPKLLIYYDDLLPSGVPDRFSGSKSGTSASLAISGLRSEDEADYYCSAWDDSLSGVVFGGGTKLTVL
Measured Value: 1.17 nM

Now turn to the next binder.
Lookup: Fill in: IC50, RGA 2 of TPP-31287 (antibody, IgG4, V domains shown) VH: EVQLVESGGGLVQPGGSLRLSCAASGFTFSHYDMNWLRQAPGKGLEWVGVISYDGSNKFYADFVKGRFTISRDNSKNTLYLQMNSLRAEDTAVYYCARTPGSHFDYWGQGTLVTVSS VL: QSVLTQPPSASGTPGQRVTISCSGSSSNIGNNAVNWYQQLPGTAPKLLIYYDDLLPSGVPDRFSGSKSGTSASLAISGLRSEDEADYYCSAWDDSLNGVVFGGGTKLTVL is ___
Found: 15 nM
